Experiment: in vitro
Details: mouse
pIC50: −log10 of the molar value.
READOUT KIND: pIC50

(Q) // returns reported pIC50 for input C=CC(C)(C)c1[nH]c2ccccc2c1/C=C1\NC(=O)C(=O)NC1=O [Compound 6, neoechinulin E]
(A) < 4.00

----------
Recorded pIC50 by entry
Experiment: MTT cytotoxicity assay, Neuro-2a cells
Details: mouse
pIC50: −log10 of the molar value.

Answered cases to consult:
C=CC(C)(C)c1[nH]c2cc(CC=C(C)C)ccc2c1/C=C1\NC(=O)[C@]2(C[C@H](C)C=C[C@@H]2/C=C/c2c(O)cc(CC=C(C)C)c(O)c2C=O)NC1=O [Compound 1a, (+)-Cryptoechinuline B] :: < 4.00
C=CC(C)(C)c1[nH]c2c(CC=C(C)C)cc(CC=C(C)C)cc2c1C[C@@H]1NC(=O)[C@H](C)NC1=O :: < 4.00

Attention now turns to another entry.
(Q) Looking for the measured pIC50 of C=CC(C)(C)c1[nH]c2ccccc2c1/C=c1\[nH]c(=O)c(=C)[nH]c1=O , can you help?
(A) 4.29

----------
Test system: Neuro-2a cells
Test: Paraquat-induced cell model of Parkinson's disease (viability, MTT)
Details: 10 µM compound 1 h pretreatment, paraquat 500 µM, 24 h
READOUT KIND: increase in viability of PQ-treated cells

C=CC(C)(C)c1[nH]c2cc(CC=C(C)C)ccc2c1/C=C1\NC(=O)C(=O)NC1=O [Compound 7, neoechinulin] :: inactive
C=CC(C)(C)c1[nH]c2c(CC=C(C)C)cc(CC=C(C)C)cc2c1C[C@@H]1NC(=O)[C@H](C)NC1=O [Compound 3, echinulin] :: inactive
C=CC(C)(C)c1[nH]c2cc(CC=C(C)C)ccc2c1/C=C1\NC(=O)[C@@]2(C[C@@H](C)C=C[C@H]2/C=C/c2c(O)cc(CC=C(C)C)c(O)c2C=O)NC1=O [Compound 1b, (−)-Cryptoechinuline B] :: protected
C=CC(C)(C)c1[nH]c2ccccc2c1/C=c1\[nH]c(=O)c(=C)[nH]c1=O [Compound 4, neoechinulin B] :: inactive

Consider now this further molecule.
(Q) Hi! What's the reported increase in viability of PQ-treated cells for C=CC(C)(C)c1[nH]c2cc(CC=C(C)C)ccc2c1/C=c1\[nH]c(=O)c(=C)[nH]c1=O [Compound 5, neoechinulin C] on Neuro-2a cells?
(A) protected

----------
// reported pIC50 per item
Assay: DPPH-radical scavenger assay (cell-free)
Format: biochemical
Settings: MeOH, 30 min
The quantity pIC50 is defined as the negative base-10 logarithm of the molar concentration.

Take a look at these entries with their results.
C=CC(C)(C)c1[nH]c2cc(CC=C(C)C)ccc2c1/C=C1\NC(=O)[C@@]2(C[C@@H](C)C=C[C@H]2/C=C/c2c(O)cc(CC=C(C)C)c(O)c2C=O)NC1=O [Compound 1b, (−)-Cryptoechinuline B] :: 3.93
C=CC(C)(C)c1[nH]c2cc(CC=C(C)C)ccc2c1/C=C1\NC(=O)[C@]2(C[C@H](C)C=C[C@@H]2/C=C/c2c(O)cc(CC=C(C)C)c(O)c2C=O)NC1=O [Compound 1a, (+)-Cryptoechinuline B] :: 3.91

API: the following record is the query input.
(Q) What does the record list as pIC50 for C=CC(C)(C)c1[nH]c2cc(CC=C(C)C)ccc2c1/C=C1\NC(=O)C(=O)NC1=O ?
(A) 4.20

----------
Test: MTT cytotoxicity assay, Neuro-2a cells
Conditions: mouse
pIC50: −log10 of the molar value.
The entries below come with measured pIC50 values attached.

(Q) Given C=CC(C)(C)c1[nH]c2cc(CC=C(C)C)ccc2c1/C=c1\[nH]c(=O)c(=C)[nH]c1=O , state its recorded pIC50.
(A) 4.39

(Q) Entry C=CC(C)(C)c1[nH]c2cc(CC=C(C)C)ccc2c1/C=C1\NC(=O)[C@@]2(C[C@@H](C)C=C[C@H]2/C=C/c2c(O)cc(CC=C(C)C)c(O)c2C=O)NC1=O [Compound 1b, (−)-Cryptoechinuline B] : reported pIC50 = ?
(A) < 4.00

(Q) Entry C=CC(C)(C)c1[nH]c2cc(CC=C(C)C)ccc2c1/C=C1\NC(=O)C(=O)NC1=O : reported pIC50 = ?
(A) < 4.00

(Q) # pIC50 lookup, item C=CC(C)(C)c1[nH]c2ccccc2c1C=C1NC(=O)C2(CC(C)C=CC2C=Cc2c(O)cc(CC=C(C)C)c(O)c2C=O)NC1=O (stereo not shown)
(A) < 4.00

----------
Reported IC50 is given for each of the following molecules.
Assay: MTT cytotoxicity assay, LNCaP cells
Type: cell-based
Conditions: human
Method: 22Rv1, PC-3, and LNCaP cell lines were cultured according to the manufacturer’s instructions in 10% FBS/RPMI media (Invitrogen, Carlsbad, CA, USA). Cells were continuously kept in culture for a maximum of 3 months and were routinely inspected microscopically for stable phenotypes and regularly checked for contamination with mycoplasma. Cell line authentication was performed by DSMZ (Braunschweig, Germany) using highly polymorphic short tandem repeat loci. […]
Write down the numeric answer in µM and omit the unit.

Completed entries (count: 2):
C=CC(C)(C)c1[nH]c2c(CC=C(C)C)cc(CC=C(C)C)cc2c1C[C@@H]1NC(=O)[C@H](C)NC1=O :: 25.9
C=CC(C)(C)c1[nH]c2cc(CC=C(C)C)ccc2c1/C=C1\NC(=O)C(=O)NC1=O :: 38.9

Please look at the following molecule next.
(Q) Given CC(=O)O[C@@]12CO[C@@H]1C[C@H](O)[C@@]1(C)C(=O)[C@H](O)C3=C(C)[C@@H](OC(=O)[C@H](O)[C@@H](NC(=O)OC(C)(C)C)c4ccccc4)C[C@@](O)([C@@H](OC(=O)c4ccccc4)[C@H]21)C3(C)C [Docetaxel, reference compound] , state its recorded IC50.
(A) 0.004

----------
Test system: Neuro-2a cells
Assay: Rotenone-induced cell model of Parkinson's disease (viability, MTT)
Conditions: 10 µM compound 1 h pretreatment, rotenone 10 µM, 24 h
READOUT KIND: increase in viability of rotenone-treated cells

C=CC(C)(C)c1[nH]c2cc(CC=C(C)C)ccc2c1/C=C1\NC(=O)[C@@]2(C[C@@H](C)C=C[C@H]2/C=C/c2c(O)cc(CC=C(C)C)c(O)c2C=O)NC1=O [Compound 1b, (−)-Cryptoechinuline B] :: inactive
C=CC(C)(C)c1[nH]c2cc(CC=C(C)C)ccc2c1/C=c1\[nH]c(=O)c(=C)[nH]c1=O :: not active
C=CC(C)(C)c1[nH]c2cc(CC=C(C)C)ccc2c1/C=C1\NC(=O)C(=O)NC1=O :: not active
C=CC(C)(C)c1[nH]c2c(CC=C(C)C)cc(CC=C(C)C)cc2c1C[C@@H]1NC(=O)[C@H](C)NC1=O :: inactive

----------
Molecular target: urease from Canavalia ensiformis (Canavalia ensiformis, UniProt P07374)
Construct: purchased Sigma
Sequence (P07374 whole entry, looked up): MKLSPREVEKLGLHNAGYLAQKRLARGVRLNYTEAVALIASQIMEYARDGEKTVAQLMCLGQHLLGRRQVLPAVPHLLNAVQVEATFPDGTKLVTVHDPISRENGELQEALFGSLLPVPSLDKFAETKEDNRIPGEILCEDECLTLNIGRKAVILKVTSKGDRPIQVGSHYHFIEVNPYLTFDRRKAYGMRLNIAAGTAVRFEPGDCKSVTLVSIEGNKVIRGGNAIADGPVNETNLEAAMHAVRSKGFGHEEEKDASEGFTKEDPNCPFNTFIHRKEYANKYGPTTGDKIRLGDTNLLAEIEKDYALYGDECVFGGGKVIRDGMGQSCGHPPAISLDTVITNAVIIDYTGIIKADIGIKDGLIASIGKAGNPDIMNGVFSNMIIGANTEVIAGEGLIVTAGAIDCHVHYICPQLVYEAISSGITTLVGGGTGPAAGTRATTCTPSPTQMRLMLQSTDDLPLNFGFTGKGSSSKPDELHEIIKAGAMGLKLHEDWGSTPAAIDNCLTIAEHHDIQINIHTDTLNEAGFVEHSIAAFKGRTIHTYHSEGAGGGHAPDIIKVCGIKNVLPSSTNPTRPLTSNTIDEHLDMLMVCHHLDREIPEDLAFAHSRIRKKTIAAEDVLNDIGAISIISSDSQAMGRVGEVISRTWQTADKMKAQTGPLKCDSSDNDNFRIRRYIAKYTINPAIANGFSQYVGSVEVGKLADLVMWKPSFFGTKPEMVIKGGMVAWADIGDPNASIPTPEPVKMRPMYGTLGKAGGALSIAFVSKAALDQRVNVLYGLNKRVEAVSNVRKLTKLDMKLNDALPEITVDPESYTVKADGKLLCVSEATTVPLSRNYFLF
Assay: Cell-free urease inhibition assay (indophenol method)
Assay type: biochemical
Settings: cell-free, 0.2-100.0 µM tested, pH 7.3-7.5; read-out: urease inhibition IC50
READOUT KIND: IC50 (µM)
# output: bare number, implied unit µM

(Q) Returns the measured IC50 for the input compound. Input: NC(N)=S [Thiourea, reference compound]
(A) 23
